Target: T1, human GIP receptor (human) (UniProt P48546)
T1 sequence (looked up): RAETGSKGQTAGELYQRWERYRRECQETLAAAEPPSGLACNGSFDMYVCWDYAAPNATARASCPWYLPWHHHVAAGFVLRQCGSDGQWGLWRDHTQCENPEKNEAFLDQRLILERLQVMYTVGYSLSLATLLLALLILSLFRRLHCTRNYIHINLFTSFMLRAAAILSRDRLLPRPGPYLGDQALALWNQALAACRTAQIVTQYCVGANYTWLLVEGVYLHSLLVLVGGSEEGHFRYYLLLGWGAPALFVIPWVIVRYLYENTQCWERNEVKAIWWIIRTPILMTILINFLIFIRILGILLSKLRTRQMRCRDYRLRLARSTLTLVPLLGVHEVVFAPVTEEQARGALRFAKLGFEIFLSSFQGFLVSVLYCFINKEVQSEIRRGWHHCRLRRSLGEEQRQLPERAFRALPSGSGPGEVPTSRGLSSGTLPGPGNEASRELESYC
Assay: cell-based or functional assay
Starred links: 1 amine or outer side, 2 acyl side, 3 side chain; linkers in the order of their positions; H or OH if unused. Non-standard residues stand in square brackets, D forms with d. Groups on a side chain read outwards from the residue. No end group written: not given here. *: point of attachment. C18 diacid = O=C(O)CCCCCCCCCCCCCCCCC(=O)*; γGlu = O=C(O)[C@H](CCC(=O)[*:2])N[*:1]; αMeL = CC(C)C[C@](C)(N)C(=O)O; Dab = NCC[C@H](N)C(=O)O; AEEA = NCCOCCOCC(=O)O; Aib = CC(C)(N)C(=O)O
Would you mind labelling by cAMP Rel EC50, nM (in the presence of 1% HSA)? At or over 30 nM is TRUE, under is FALSE.

- YXQGTFTSDFSKXLDKKAQXAFIEYLLEXGPSSGAPPPGEG (synthetic construct; SITE 2: note = 2-Aminoisobutyric Acid; SITE 13: note = alpha-methyl-leucine; SITE 17: note = Lysine is chemically modified through conjugation of the epsilon-amino group of the Lysine side chain with (2-[2-(2-Amino-ethoxy)-ethoxy]-acetyl)2-(gamma-Glu)-CO-(CH2 )18-CO2H; SITE 20:) [Example 55]: FALSE
- YXQGTFTSDFSXXLDKKAQXAFIEYLLEGGPSSGAPPPEGS (synthetic construct; SITE 2: note = 2-Aminoisobutyric Acid; SITE 12: note = L-ornithine; SITE 13: note = alpha-methyl-leucine; SITE 17: note = Lysine is chemically modified through conjugation of the epsilon-amino group of the Lysine side chain with (2-[2-(2-Amino-ethoxy)-ethoxy]-acetyl)-(gamma-Glu)) [Example 130]: TRUE
- YXQGTFTSDFSXXLDKKAQXAFIEWLLEGGHSSGAPPPEGS (synthetic construct; SITE 2: note = 2-Aminoisobutyric Acid; SITE 12: note = L-ornithine; SITE 13: note = alpha-methyl-leucine; SITE 17: note = Lysine is chemically modified through conjugation of the epsilon-amino group of the Lysine side chain with (2-[2-(2-Amino-ethoxy)-ethoxy]-acetyl)-(gamma-Glu)) [Example 126]: TRUE
- Y[Aib]QGTFTSDFS[Dab][αMeL]LDKK([AEEA-γGlu-C18 diacid])AQ[Aib]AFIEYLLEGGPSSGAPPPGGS-NH2 [Example 67]: TRUE
- YXQGTFTSDFSXXLDKKAQXAFIEYLLAGGPSSGAPPPEGS (synthetic construct; SITE 2: note = 2-Aminoisobutyric Acid; SITE 12: note = L-ornithine; SITE 13: note = alpha-methyl-leucine; SITE 17: note = Lysine is chemically modified through conjugation of the epsilon-amino group of the Lysine side chain with (2-[2-(2-Amino-ethoxy)-ethoxy]-acetyl)-(gamma-Glu)) [Example 93]: FALSE
- YXQGTFTSDFSXXLDKKAQXAFIEWLLEGGPSSGAXPPSGE (synthetic construct; SITE 2: note = 2-Aminoisobutyric Acid; SITE 12: note = L-ornithine; SITE 13: note = alpha-methyl-leucine; SITE 17: note = Lysine is chemically modified through conjugation of the epsilon-amino group of the Lysine side chain with (2-[2-(2-Amino-ethoxy)-ethoxy]-acetyl)-(gamma-Glu)) [Example 136]: TRUE
- YXQGTFTSDFSXXLDKKAQXAFIEYLLAGGPSSGEPPPEGE (synthetic construct; SITE 2: note = 2-Aminoisobutyric Acid; SITE 12: note = L-ornithine; SITE 13: note = alpha-methyl-leucine; SITE 17: note = Lysine is chemically modified through conjugation of the epsilon-amino group of the Lysine side chain with (2-[2-(2-Amino-ethoxy)-ethoxy]-acetyl)-(gamma-Glu)) [Example 98]: TRUE
- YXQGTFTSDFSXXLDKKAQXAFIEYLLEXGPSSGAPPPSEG (synthetic construct; SITE 2: note = 2-Aminoisobutyric Acid; SITE 12: note = L-ornithine; SITE 13: note = alpha-methyl-leucine; SITE 17: note = Lysine is chemically modified through conjugation of the epsilon-amino group of the Lysine side chain with (2-[2-(2-Amino-ethoxy)-ethoxy]-acetyl)-(gamma-Glu)) [Example 61]: TRUE
- YXQGTFTSDFSXXLDKKAQXAFIEYLLEGGPSSGAPPPSGE (synthetic construct; SITE 2: note = 2-Aminoisobutyric Acid; SITE 12: note = L-ornithine; SITE 13: note = alpha-methyl-leucine; SITE 17: note = Lysine is chemically modified through conjugation of the epsilon-amino group of the Lysine side chain with (2-[2-(2-Amino-ethoxy)-ethoxy]-acetyl)2-(gamma-Glu)) [Example 107]: TRUE
- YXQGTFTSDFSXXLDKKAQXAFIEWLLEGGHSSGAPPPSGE (synthetic construct; SITE 2: note = 2-Aminoisobutyric Acid; SITE 12: note = L-ornithine; SITE 13: note = alpha-methyl-leucine; SITE 17: note = Lysine is chemically modified through conjugation of the epsilon-amino group of the Lysine side chain with (2-[2-(2-Amino-ethoxy)-ethoxy]-acetyl)-(gamma-Glu)) [Example 122]: TRUE

Origin of values: patent US20240270821A1
